protocol text: Lipophilic-hydrophilic balance, Rm of the compound by reversed-phase chromatographic analysis
Format: physicochemical
Response key: true (1) means Rm >= 0; false (0) means Rm < 0.

Reference set (6 entries):
compound	group
Cl.O.c1ccc(OCCOc2ccccc2Nc2c3ccccc3nc3ccccc23)c(Nc2c3ccccc3nc3ccccc23)c1	true (1)
Br.O=S(=O)(CCCCNc1ccnc2ccccc12)Nc1ccc(Nc2c3ccccc3nc3ccccc23)cc1	false (0)
Cl.O.O=S(=O)(CCCCCS(=O)(=O)Nc1ccc(Nc2c3ccccc3nc3ccccc23)cc1)Nc1ccc(Nc2c3ccccc3nc3ccccc23)cc1	false (0)
c1ccc2c(NCCNc3c4ccccc4nc4ccccc34)c3ccccc3nc2c1	false (0)
Cl.O.O=S(=O)(CCNc1c2ccccc2nc2ccccc12)Nc1ccc(Nc2c3ccccc3nc3ccccc23)cc1	false (0)
Br.O.O=S(=O)(CCCCCCNc1ccnc2ccccc12)Nc1ccc(Nc2c3ccccc3nc3ccccc23)cc1	false (0)

IN: Check this compound for Rm at or above 0: Cl.c1ccc(OCCCCOc2ccccc2Nc2ccnc3ccccc23)c(Nc2ccnc3ccccc23)c1
OUT: false (0)

IN: Could you please find out whether c1ccc2c(NCCCCCCCCCCCCNc3c4ccccc4nc4ccccc34)c3ccccc3nc2c1 has Rm that meets 0 or exceeds it?
OUT: true (1)

Hey, just so you know, these numbers are from ChEMBL document CHEMBL3272039.
